Target: T1, 4H481-AA
T1 chain: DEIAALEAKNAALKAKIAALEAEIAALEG
Assay: two-hybrid library CCmax;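 also: natural log of median RNA to DNA barcode read ratio; higher means stronger binding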
Details: mean of both orientations
# interaction score annotations

BINDER: DEIAALEAKIAALKAKNAALEAEIAALEG [4H369-AA]
interaction score: -0.912
//
BINDER: DKIAALEAENAALEAKNAALKAKIAALKG [4H2238-AA]
interaction score: 1.84
//
BINDER: DKIAALKAEIAALEAKNAALEAKIAALKG [4H2614-AA]
interaction score: 1.06
//
BINDER: DENAALEAKIAALKAKNAALKAKIAALEG [4H1405-AA]
interaction score: -0.893
//
BINDER: DKIAALEAKNAALKAKIAALEAKNAALKG [4H2536-AA]
interaction score: -0.0556
//
BINDER: DKNAALKAEIAALEAKIAALKAEIAALEG [4H3625-AA]
interaction score: -0.502
//
BINDER: DKIAALEAKNAALKAENAALEAEIAALEG [4H2513-AA]
interaction score: -1.36
